Where do the numbers come from? From the supplement of paper PMC9233669.

- Test system: biotinyl-Ile-oxazolone
- run-description: self-aminoacylation, catalytic enhancement (BIO) (fold over background); higher = more active; k-Seq, kA / k0A0; sequences stand for … in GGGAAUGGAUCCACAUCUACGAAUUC…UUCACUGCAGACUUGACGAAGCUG
Fewer inactive variants are shown than the library holds.
assay-readout: self-aminoacylation
Answers are plain numbers.

{"input-sequence": "AGUCACCUAUGUCAUCGGGUG [Fam2.2 aminoacylation ribozyme variant]", "self-aminoacylation": 3.74}
{"input-sequence": "CCAAACUUCAAGCAAUCGGUG [Fam1B.1 aminoacylation ribozyme variant]", "self-aminoacylation": 4.67}
{"input-sequence": "CUACUUCUAACAAUCCGUCUG [Fam1A.1 aminoacylation ribozyme variant]", "self-aminoacylation": 0.905}
{"input-sequence": "AAGUUUGCUAAUAGUCGAUAG [Fam3.1 aminoacylation ribozyme variant]", "self-aminoacylation": 0.824}
{"input-sequence": "CCACACUUUAAGCAUUCGGUC [Fam1B.1 aminoacylation ribozyme variant]", "self-aminoacylation": 1.39}
{"input-sequence": "AUUCACCUGGGCCAUCGGGUG [Fam2.2 aminoacylation ribozyme variant]", "self-aminoacylation": 4.03}
{"input-sequence": "AUAACUCUGGUCAUCGAGUGA [Fam2.1 aminoacylation ribozyme variant]", "self-aminoacylation": 3.06}
{"input-sequence": "AUUACCCUGGUCAACGAGUAA [Fam2.1 aminoacylation ribozyme variant]", "self-aminoacylation": 1.29}
{"input-sequence": "AGGUUUGCUAAUAGUCGCAGG [Fam3.1 aminoacylation ribozyme variant]", "self-aminoacylation": 1.97}
{"input-sequence": "AUUACUCUGGUCUUCGAGUGA [Fam2.1 aminoacylation ribozyme variant]", "self-aminoacylation": 3.13}

Return reported self-aminoacylation values for all items listed beneath this line.
1. CUACUUCAAACUAUCGAUCUG [Fam1A.1 aminoacylation ribozyme variant]
2. AUUAACCUGGUCAUCGAGUGU [Fam2.1 aminoacylation ribozyme variant]
3. AUCCACCAAGGUCAUCGGGUG [Fam2.2 aminoacylation ribozyme variant]
4. CUACUUCAAAUAAUCGGCCUG [Fam1A.1 aminoacylation ribozyme variant]
5. CCAAACUUCAAGCAAUCGGAC [Fam1B.1 aminoacylation ribozyme variant]
6. AUUCAUCAAGGUCAUCGGGUG [Fam2.2 aminoacylation ribozyme variant]

Return:
0.736
2.33
5.16
1.11
0.912
5.94

Can you give me self-aminoacylation for all of these, one by one?
1. GGACUUCAAACAAUCGGUCUG [Fam1A.1 aminoacylation ribozyme variant]
2. AAUCACCUAGGUGAUCGGGUG [Fam2.2 aminoacylation ribozyme variant]

Return:
1. 2.34
2. 4.6
